# target or test system: α2-receptors (mouse vas deferens) (Mus musculus, UniProt Q01338)
# Construct: isolated, electrically stimulated mouse vas deferens preparation; from tissue; host or cells: mouse vas deferens
# Sequence (Q01338 1-465): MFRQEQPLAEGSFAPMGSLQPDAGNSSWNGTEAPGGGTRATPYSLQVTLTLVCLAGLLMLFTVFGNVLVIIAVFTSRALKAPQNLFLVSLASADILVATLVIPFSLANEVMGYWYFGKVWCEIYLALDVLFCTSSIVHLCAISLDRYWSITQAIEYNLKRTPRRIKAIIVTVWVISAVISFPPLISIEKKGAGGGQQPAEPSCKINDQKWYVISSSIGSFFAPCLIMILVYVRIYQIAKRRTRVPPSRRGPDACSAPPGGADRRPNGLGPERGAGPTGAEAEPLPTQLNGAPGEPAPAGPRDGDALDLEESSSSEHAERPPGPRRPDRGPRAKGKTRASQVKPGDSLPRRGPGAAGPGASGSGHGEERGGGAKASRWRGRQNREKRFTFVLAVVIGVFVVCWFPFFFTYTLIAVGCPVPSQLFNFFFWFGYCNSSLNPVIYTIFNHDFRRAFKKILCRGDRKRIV
# assay details: α2-antagonism in vitro, isolated electrically stimulated mouse vas deferens (pA2 vs detomidine)
# Type: cell-based
# measurement setup: antagonist given prior to agonist detomidine
In this section we review reported Kb values for a set of molecules.
Unit nM implied. Number only.

Worked set:
CC(C)(O)C1(c2cnc[nH]2)Cc2ccccc2C1 [Compound I] :: 3980
C=CC1(c2cnc[nH]2)Cc2ccccc2C1 [Compound IV] :: 25.1
CC(C)C1(c2cnc[nH]2)Cc2ccccc2C1 [Compound III] :: 398

Query molecule follows.
Q. Which measured Kb value corresponds to C=C(C)C1(c2cnc[nH]2)Cc2ccccc2C1 [Compound II] ?
A. 100

Taken from patent US4933359A.
